MEASURED TARGET: human EDG-4 (Homo sapiens, UniProt O95136, F273L/I205V)
Construct: a 1059 bp open reading frame (excluding the stop codon) corresponding to the complete human edg-4 coding region; expressed in transfected cells; host or cells: 293-EBNA
Sequence (O95136 whole entry I205V/F273L): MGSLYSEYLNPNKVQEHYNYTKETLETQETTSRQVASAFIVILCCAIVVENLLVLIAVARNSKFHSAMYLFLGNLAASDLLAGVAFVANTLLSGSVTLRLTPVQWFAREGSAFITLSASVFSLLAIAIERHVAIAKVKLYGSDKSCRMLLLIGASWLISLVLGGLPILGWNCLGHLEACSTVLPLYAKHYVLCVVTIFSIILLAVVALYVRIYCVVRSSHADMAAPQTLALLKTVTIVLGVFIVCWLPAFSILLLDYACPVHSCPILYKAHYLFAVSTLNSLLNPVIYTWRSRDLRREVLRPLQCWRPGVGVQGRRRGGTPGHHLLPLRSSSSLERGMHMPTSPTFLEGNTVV
EXPERIMENTAL DETAILS: Relative potency and efficacy of agonists, luciferase (SRE) reporter in 293-EBNA cells expressing recombinant human EDG-4
Assay type: cell-based
QUANTITY KIND: agonist character at EDG-4

- CCCCCCCCCCCCC/C=C/[C@@H](O)[C@@H](N)COP(=O)(O)O [S1P, sphingosine 1-phosphate]: full agonists
- CCCCCCCCCCCCC/C=C/[C@@H](O)[C@@H](N)COP(=O)([O-])OCC[N+](C)(C)C: full agonists
